From: ChEMBL document CHEMBL3616364

Test: Retention time of the compound in isocratic acetonitrile/water by HPLC analysis
Details: buffer
Starred links: 1 amine or outer side, 2 acyl side, 3 side chain; linkers in the order of their positions; H or OH if unused. Non-standard residues stand in square brackets, D forms with d. Residues, ends and D or L forms follow the SMILES beside them. Ile(ψThz) = CC[C@H](C)[C@H](N[*:1])c1nc(C(=O)[*:2])cs1; NMeF = CN[C@@H](Cc1ccccc1)C(=O)O; NMeA = CN[C@@H](C)C(=O)O

{"Molecule": "CC[C@H](C)[C@@H]1NC(=O)c2csc(n2)[C@H]([C@@H](C)CC)NC(=O)[C@@H]2CCCN2C(=O)[C@H]([C@@H](C)CC)NC(=O)[C@@H]2CCCN2C(=O)[C@H](Cc2ccccc2)N(C)C1=O (cyclo(I[NMeF]PIP[Ile(ψThz)]))", "Retention_time": "10 min"}
{"Molecule": "CC[C@H](C)[C@@H]1NC(=O)[C@@H]2CCCN2C(=O)[C@H](Cc2ccccc2)NC(=O)[C@H](C)N(C)C(=O)c2csc(n2)[C@H]([C@@H](C)CC)NC(=O)[C@@H]2CCCN2C1=O (cyclo(FPIP[Ile(ψThz)][NMeA]))", "Retention_time": "1.48 min"}

---

Recorded Retention_time for the following compounds
Assay: Retention time of the compound in isocratic acetonitrile/water by HPLC analysis
Details: buffer
Starred links: 1 amine or outer side, 2 acyl side, 3 side chain; linkers in the order of their positions; H or OH if unused. Non-standard residues stand in square brackets, D forms with d. Residues, ends and D or L forms follow the SMILES beside them. Ile(ψThz) = CC[C@H](C)[C@H](N[*:1])c1nc(C(=O)[*:2])cs1; NMeF = CN[C@@H](Cc1ccccc1)C(=O)O; Tle = CC(C)(C)[C@H](N)C(=O)O
Quantity Name: Retention_time

{"Compound": "CC[C@H](C)[C@@H]1NC(=O)[C@@H]2CCCN2C(=O)[C@H](Cc2ccccc2)N(C)C(=O)[C@H](C)NC(=O)c2csc(n2)[C@H]([C@@H](C)CC)NC(=O)[C@@H]2CCCN2C1=O (cyclo(A[NMeF]PIP[Ile(ψThz)]))", "Observed Result": "3.03 min"}
{"Compound": "CC[C@H](C)[C@@H]1NC(=O)c2csc(n2)[C@H]([C@@H](C)CC)NC(=O)[C@@H]2CCCN2C(=O)[C@H]([C@@H](C)CC)NC(=O)[C@@H]2CCCN2C(=O)[C@H](Cc2ccccc2)NC1=O (cyclo(FPIP[Ile(ψThz)]I))", "Observed Result": "7.86 min"}
{"Compound": "CC[C@H](C)[C@@H]1NC(=O)[C@@H]2CCCN2C(=O)[C@H](Cc2ccccc2)NC(=O)[C@H](C)NC(=O)c2csc(n2)[C@H]([C@@H](C)CC)NC(=O)[C@@H]2CCCN2C1=O (cyclo(AFPIP[Ile(ψThz)]))", "Observed Result": "2.77 min"}
{"Compound": "CC[C@H](C)[C@@H]1NC(=O)[C@@H]2CCCN2C(=O)[C@H](Cc2ccccc2)NC(=O)[C@H](C(C)(C)C)NC(=O)c2csc(n2)[C@H]([C@@H](C)CC)NC(=O)[C@@H]2CCCN2C1=O (cyclo(FPIP[Ile(ψThz)][Tle]))", "Observed Result": "8.72 min"}
